System: RS4-11 (B-Lymphoblastic Leukemia)
ASSAY: combination Emax (second highest fraction inhibited in the dose matrix, 72 h); higher = more inhibition; extreme values may be limits of the assay
For each record, write down the corresponding combination Emax.
Answers are plain numbers.

Some entries whose results are on file:
// Input: C[C@@H](c1ccc2nccn2c1)n1nnc2ncc(-c3cnn(C)c3)nc21 [Savolitinib] + CN(CC[C@H](CSC1=CC=CC=C1)NC2=C(C=C(C=C2)S(=O)(=O)NC(=O)C3=CC=C(C=C3)N4CCC(CC4)[C@H](C5=CC=CC=C5C6=CC=C(C=C6)Cl)O)S(=O)(=O)C(F)(F)F)CCO [AZD4320] (first compound max 1 µM, 7x7, partner max 1 µM) . Output its combination Emax only.
1

Look up and report measured combination Emax for this entry: Cc1c2c(nn1C)CSCc1cc(n(C)n1)CSc1cc(c3ccccc3c1)OCCCc1c(C(=O)O)n(C)c3c-2c(Cl)ccc13 [AZD5991] + C[C@@H](Nc1cc(F)cc(F)c1)c1cc(C(=O)N(C)C)cc2c(=O)cc(N3CCOCC3)oc12 [AZD8186] (first compound max 1 µM, 7x7, partner max 3 µM)
0.591

Please report the measured combination Emax for C=CCn1c(=O)c2cnc(Nc3ccc(N4CCN(C)CC4)cc3)nc2n1-c1cccc(C(C)(C)O)n1 [AZD1775] + O=C(c1cc(Cc2n[nH]c(=O)c3ccccc23)ccc1F)N1CCN(C(=O)C2CC2)CC1 [Olaparib] (first compound max 1 µM, partner max 10 µM)
0.952

Others:
Give combination Emax for the following compound: COc1cccc(OCCCN)c1-c1cc(Nc2cnc(C#N)cn2)n[nH]1 [Prexasertib] + C=CCn1c(=O)c2cnc(Nc3ccc(N4CCN(C)CC4)cc3)nc2n1-c1cccc(C(C)(C)O)n1 [AZD1775] (first compound max 1 µM, partner max 1 µM)
1

###

Test system: DK-MG (Glioblastoma)
ASSAY: combination Emax (second highest fraction inhibited in the dose matrix, 72 h); higher = more inhibition; extreme values may be limits of the assay
Note to self: values exactly at 0.4 are met. So combination Emax at or above 0.4 is met, below is not met.

I'd appreciate it if you could say whether COc1cc2ncnc(Nc3ccc(F)c(Cl)c3)c2cc1OCCCN1CCOCC1 [Gefitinib] + CC(C)n1c(=O)n(C)c2cnc3cc(F)c(-c4ccc(OCCCN5CCCCC5)nc4)cc3c21 [AZD1390] (first compound max 10 µM, 7x7, partner max 0.3 µM) has combination Emax at least equal to 0.4.
not met

Next:
Quick check, combination Emax >= 0.4? C[C@@H](c1ccc2nccn2c1)n1nnc2ncc(-c3cnn(C)c3)nc21 [Savolitinib] + CN(CC[C@H](CSC1=CC=CC=C1)NC2=C(C=C(C=C2)S(=O)(=O)NC(=O)C3=CC=C(C=C3)N4CCC(CC4)[C@H](C5=CC=CC=C5C6=CC=C(C=C6)Cl)O)S(=O)(=O)C(F)(F)F)CCO [AZD4320] (first compound max 1 µM, 7x7, partner max 1 µM)
not met

Could you tell me if the measured combination Emax of Cc1c2c(nn1C)CSCc1cc(n(C)n1)CSc1cc(c3ccccc3c1)OCCCc1c(C(=O)O)n(C)c3c-2c(Cl)ccc13 [AZD5991] + Cn1cnc2c(F)c(Nc3ccc(Br)cc3Cl)c(C(=O)NOCCO)cc21 [Selumetinib] (first compound max 1 µM, 7x7, partner max 3 µM) reaches 0.4 or more?
met

Is the recorded value of combination Emax equal to or greater than 0.4 for this compound? CC(=O)Nc1cccc(-n2c(=O)n(C3CC3)c(=O)c3c(Nc4ccc(I)cc4F)n(C)c(=O)c(C)c32)c1 [Trametinib] + Cc1nc(-c2cn3c(n2)-c2ccc(-c4cnn(C(C)(C)C(N)=O)c4)cc2OCC3)n(C(C)C)n1 [Taselisib] (first compound max 1 µM, 7x7, partner max 10 µM)
met
